Answer each item with its documented HEK-Blue, IL-1β, % inhibition at 100 nM (Fab).
# TARGET_OR_TEST_SYSTEM: T1, human IL1RAP (hu-IL1RAP) on human cells (human, UniProt Q9NPH3 21-570)
# T1 sequence: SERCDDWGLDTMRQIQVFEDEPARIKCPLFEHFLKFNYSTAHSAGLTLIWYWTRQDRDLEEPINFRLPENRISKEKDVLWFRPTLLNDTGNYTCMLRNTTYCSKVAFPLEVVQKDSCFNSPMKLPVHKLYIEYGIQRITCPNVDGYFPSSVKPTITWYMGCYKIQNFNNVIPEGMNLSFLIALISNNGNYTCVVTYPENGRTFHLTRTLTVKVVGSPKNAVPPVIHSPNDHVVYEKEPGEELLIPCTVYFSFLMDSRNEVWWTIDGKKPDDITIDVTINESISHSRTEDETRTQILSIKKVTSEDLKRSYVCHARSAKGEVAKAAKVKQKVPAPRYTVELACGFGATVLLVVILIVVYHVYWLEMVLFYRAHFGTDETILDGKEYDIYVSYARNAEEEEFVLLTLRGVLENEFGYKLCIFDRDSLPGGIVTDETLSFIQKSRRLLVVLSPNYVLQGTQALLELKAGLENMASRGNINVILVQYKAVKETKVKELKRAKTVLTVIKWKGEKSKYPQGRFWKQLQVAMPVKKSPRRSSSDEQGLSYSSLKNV
# TEST_METHOD_NOTES: cell-based or functional assay
Give just the numeric value; % need not be written.

Ask: Given K17/H2 Fab (VL-A51Y/W92K, VH-R96D) (Fab, V domains shown, Fab with 8xHis tag) VH: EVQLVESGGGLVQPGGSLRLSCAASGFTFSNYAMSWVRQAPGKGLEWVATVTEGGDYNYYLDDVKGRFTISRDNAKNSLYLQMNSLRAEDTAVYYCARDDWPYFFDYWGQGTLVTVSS VL: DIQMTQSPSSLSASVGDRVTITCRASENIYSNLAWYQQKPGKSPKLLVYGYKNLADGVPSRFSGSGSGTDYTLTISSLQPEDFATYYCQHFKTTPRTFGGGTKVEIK , respond with its HEK-Blue, IL-1β, % inhibition at 100 nM (Fab).
Result: 100

Ask: Given K13/H3 Fab (VL-A51Y/W92I, VH-V51S) (Fab, V domains shown, Fab with 8xHis tag) VH: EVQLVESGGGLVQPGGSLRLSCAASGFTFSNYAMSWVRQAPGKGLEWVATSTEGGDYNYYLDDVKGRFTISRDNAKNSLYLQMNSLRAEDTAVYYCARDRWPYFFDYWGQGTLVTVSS VL: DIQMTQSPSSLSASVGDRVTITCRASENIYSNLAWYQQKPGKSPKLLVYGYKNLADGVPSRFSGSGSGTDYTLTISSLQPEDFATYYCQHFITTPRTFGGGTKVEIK , respond with its HEK-Blue, IL-1β, % inhibition at 100 nM (Fab).
Result: 100

Ask: Given K13 Fab (VL A51Y/W92I) (Fab, V domains shown, Fab with 8xHis tag) VH: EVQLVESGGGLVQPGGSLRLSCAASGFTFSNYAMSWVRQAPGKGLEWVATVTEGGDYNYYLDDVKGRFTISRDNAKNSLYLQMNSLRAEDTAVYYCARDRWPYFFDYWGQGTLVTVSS VL: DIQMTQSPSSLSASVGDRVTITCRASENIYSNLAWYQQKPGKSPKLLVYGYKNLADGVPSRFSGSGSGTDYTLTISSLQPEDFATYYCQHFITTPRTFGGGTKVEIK , respond with its HEK-Blue, IL-1β, % inhibition at 100 nM (Fab).
Result: 100
